// reported T/C for each item listed
Tested on: P388 leukemia ip, CD2F1 mice, survival T/C
assay protocol: NCI In Vivo Anticancer Drug Screen. Data for tumor model P388 Leukemia (intraperitoneal) in CD2F1 (CDF1) mice
test conditions: endpoint: median survival time; dose: 200.0 mg/kg/injection; schedule: Q04DX002 (ip); vehicle: saline; higher = longer survival
Toxic doses and inconclusive results are not listed.
readout name: T/C

In [3]: df
Out[3]:
                                   molecule            result
0              CCN(C)c1nc(N(C)C)nc(N(C)C)n1  109 % of control
1                          CC(C)=CC(=O)NCCO  100 % of control
2  O=C(CN1CCN(CCO)CC1)N1c2ccccc2Sc2ccc(C(F)(F)F)cc21   90 % of control
3  CC(C)c1cc(C(C)C)c(S(=O)(=O)ON)c(C(C)C)c1   99 % of control
4  CC(=O)OC1CSC(OC(C)=O)C(OC(C)=O)C1[N+](=O)[O-] (stereo not given)  115 % of control

====

System: P388 leukemia ip, CD2F1 mice, survival T/C
assay protocol: NCI In Vivo Anticancer Drug Screen. Data for tumor model P388 Leukemia (intraperitoneal) in CD2F1 (CDF1) mice
test conditions: endpoint: median survival time; dose: 25.0 mg/kg/injection; schedule: Q01DX009 (ip); vehicle: Klucel (hydroxypropylcellulose) (HPC); higher = longer survival
Toxic doses and inconclusive results are not listed.
readout name: T/C

>>> print(df.to_string())
                                   compound  readout_name            result
0                          C=C1Sc2ccccc2N1C           T/C  123 % of control
1  C1C2OC2C2C1C1CC2C2OC12 (stereo unspecified)           T/C   99 % of control
2  O=C(c1ccncc1)N(CO)N(Cn1c(=O)sc2ccccc21)Cn1c(=O)sc2ccccc21           T/C   92 % of control
3                       CSC(=N/O)/C(=N\O)SC           T/C   99 % of control
4  O=C1OC(=O)C2C3C=CC(C4C=CC43)C12 (stereo unspecified)           T/C  106 % of control
5        Cc1ccc(S(=O)(=O)N/N=C/c2ccccc2)cc1           T/C   95 % of control

====

Recorded T/C values for a group of compounds are listed next.
Test system: P388 leukemia ip, CD2F1 mice, survival T/C
assay protocol: NCI In Vivo Anticancer Drug Screen. Data for tumor model P388 Leukemia (intraperitoneal) in CD2F1 (CDF1) mice
test conditions: endpoint: median survival time; dose: 200.0 mg/kg/injection; schedule: Q01DX009 (ip); vehicle: Klucel (hydroxypropylcellulose) (HPC); higher = longer survival
Description: The antitumor activity of compounds was measured in mice bearing transplantable tumors. Survival or tumor size were measured and the results are expressed as the measurement made in the treated group (T) divided by the measurement made in the vehicle treated control group (C). The tumor model used in this assay is P388 Leukemia (intraperitoneal) in CD2F1 (CDF1) mice
Toxic doses and inconclusive results are not listed.
readout name: T/C

compound	system tested	readout name	result
CC1(C)CC(O)(C(Cl)c2ccccc2)C(=O)c2ccccc21 (stereo not given)	P388 leukemia ip, CD2F1 mice, survival T/C	T/C	94 % of control
CCCCCCC(=O)C(=O)c1ccc(O)cc1O	P388 leukemia ip, CD2F1 mice, survival T/C	T/C	109 % of control
Cc1ccc(S(=O)(=O)NC(=O)C2C(=O)CC3(CCCCC3)CC2=O)cc1	P388 leukemia ip, CD2F1 mice, survival T/C	T/C	124 % of control
CCOC(=O)C1=C(C)O/C(=C/c2ccccc2)C1=O	P388 leukemia ip, CD2F1 mice, survival T/C	T/C	92 % of control
COc1cc(OC)c(NC(=S)NC(C)C)cc1Cl	P388 leukemia ip, CD2F1 mice, survival T/C	T/C	99 % of control
CC(C)(C)C1CC=CC(=O)CC1 (stereo not given)	P388 leukemia ip, CD2F1 mice, survival T/C	T/C	119 % of control
COc1ccc(CCNCc2cccc(O)c2)cc1OC	P388 leukemia ip, CD2F1 mice, survival T/C	T/C	88 % of control
CN(C)c1ccc(C=NCCCN2CCN(CCCN=Cc3ccc(N(C)C)cc3)CC2)cc1	P388 leukemia ip, CD2F1 mice, survival T/C	T/C	105 % of control
CCCNc1nc2c(s1)c1c(O)c3c(O)c(C)c4c(c32)C(=O)C(C)(O/C=C\C(OC)C(C)C(OC(C)=O)C(C)C(O)C(C)C(O)C(C)/C=C/C=C(/C)C(=O)N1)O4 (stereo not given)	P388 leukemia ip, CD2F1 mice, survival T/C	T/C	100 % of control
COC(=O)c1ccc(SCCC(=O)CNc2nc(N)nc(N)c2[N+](=O)[O-])cc1	P388 leukemia ip, CD2F1 mice, survival T/C	T/C	96 % of control
Nc1nnc2cc(F)ccc2n1	P388 leukemia ip, CD2F1 mice, survival T/C	T/C	98 % of control
CCOC(=O)Nc1c(C)cc(C)cc1C	P388 leukemia ip, CD2F1 mice, survival T/C	T/C	100 % of control
Nc1c(Cl)cc(Cl)c(-c2c(Cl)cc(Cl)c([N+](=O)[O-])c2Cl)c1Cl	P388 leukemia ip, CD2F1 mice, survival T/C	T/C	100 % of control
O=C1OC(=O)C2C3C=CC(C4C=CC43)C12 (stereo not given)	P388 leukemia ip, CD2F1 mice, survival T/C	T/C	97 % of control
O=S(=O)(CC(O)C(Cl)(Cl)Cl)N(Cc1ccccc1)Cc1ccccc1 (stereo not given)	P388 leukemia ip, CD2F1 mice, survival T/C	T/C	97 % of control
CN(C)C(=S)Nc1ccc(S(=O)(=O)N2CCCCC2)cc1	P388 leukemia ip, CD2F1 mice, survival T/C	T/C	105 % of control
c1ccc2c(c1)Cc1cc3ccccc3nc1-2	P388 leukemia ip, CD2F1 mice, survival T/C	T/C	100 % of control
Cc1ccc(S(=O)(=O)OC(C#N)c2ccccc2)cc1 (stereo not given)	P388 leukemia ip, CD2F1 mice, survival T/C	T/C	100 % of control
Cn1ncc2c(=O)[nH]cnc21	P388 leukemia ip, CD2F1 mice, survival T/C	T/C	96 % of control
CCCSCCCC(=O)O	P388 leukemia ip, CD2F1 mice, survival T/C	T/C	104 % of control
